target: F508delCFTR (Homo sapiens, UniProt P13569, DEL508-508); construct: expressed in transfected cells; host or cells: CFBE41o- (human lung derived epithelial cell line), doxycycline-inducible expression; experiment: Cell Surface Expression-Horse Radish Peroxidase (CSE-HRP) assay; type: cell-based; settings: CFBE41o-F508delCFTR-HRP cells; with co-corrector (2 μM of 3-[(2R,4R)-4-({[1-(2,2-difluoro-1,3-benzodioxol-5-yl)cyclopropyl]carbonyl}amino)-7-methoxy-3,4-dihydro-2H-chromen-2-yl]benzoic acid); read-out: EC50 (with co-corrector)
Sequence (P13569 with tags, fused parts or gaps DEL508-508): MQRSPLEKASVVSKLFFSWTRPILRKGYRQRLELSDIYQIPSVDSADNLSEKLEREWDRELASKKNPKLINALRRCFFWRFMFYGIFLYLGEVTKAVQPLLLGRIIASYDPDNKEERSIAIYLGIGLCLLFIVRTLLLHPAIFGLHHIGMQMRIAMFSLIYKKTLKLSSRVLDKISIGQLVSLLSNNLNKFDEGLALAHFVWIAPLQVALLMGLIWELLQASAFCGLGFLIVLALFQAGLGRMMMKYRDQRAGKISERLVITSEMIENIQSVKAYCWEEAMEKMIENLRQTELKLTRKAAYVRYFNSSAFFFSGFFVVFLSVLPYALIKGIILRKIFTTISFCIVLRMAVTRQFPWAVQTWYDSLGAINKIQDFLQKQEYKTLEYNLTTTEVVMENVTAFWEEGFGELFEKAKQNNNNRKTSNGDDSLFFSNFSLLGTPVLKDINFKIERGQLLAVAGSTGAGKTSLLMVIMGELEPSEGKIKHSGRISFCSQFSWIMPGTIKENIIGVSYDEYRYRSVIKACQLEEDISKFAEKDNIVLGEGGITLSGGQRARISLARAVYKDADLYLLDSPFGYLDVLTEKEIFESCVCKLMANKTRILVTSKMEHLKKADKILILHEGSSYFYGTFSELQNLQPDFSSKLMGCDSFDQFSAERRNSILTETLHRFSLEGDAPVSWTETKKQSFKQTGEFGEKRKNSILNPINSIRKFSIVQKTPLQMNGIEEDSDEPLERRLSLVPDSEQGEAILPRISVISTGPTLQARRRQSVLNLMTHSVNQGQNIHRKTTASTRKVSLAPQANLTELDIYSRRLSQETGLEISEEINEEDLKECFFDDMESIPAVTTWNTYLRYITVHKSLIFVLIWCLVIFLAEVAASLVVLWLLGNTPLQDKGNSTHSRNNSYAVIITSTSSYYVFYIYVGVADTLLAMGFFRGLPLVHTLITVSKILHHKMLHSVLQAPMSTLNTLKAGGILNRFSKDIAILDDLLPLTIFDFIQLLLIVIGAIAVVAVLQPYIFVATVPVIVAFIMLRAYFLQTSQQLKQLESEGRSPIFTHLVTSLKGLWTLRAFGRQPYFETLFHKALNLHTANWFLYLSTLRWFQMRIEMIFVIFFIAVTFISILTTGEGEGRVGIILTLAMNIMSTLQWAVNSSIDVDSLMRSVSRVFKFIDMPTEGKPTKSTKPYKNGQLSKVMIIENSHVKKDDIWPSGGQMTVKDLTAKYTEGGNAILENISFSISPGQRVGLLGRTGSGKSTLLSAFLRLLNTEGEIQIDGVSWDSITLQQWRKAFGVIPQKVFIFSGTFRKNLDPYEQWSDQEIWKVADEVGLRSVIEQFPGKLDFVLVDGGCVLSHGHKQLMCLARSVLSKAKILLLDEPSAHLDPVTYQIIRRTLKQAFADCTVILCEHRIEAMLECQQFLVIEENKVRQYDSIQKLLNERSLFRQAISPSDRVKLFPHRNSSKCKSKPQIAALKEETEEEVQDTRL
quantity.measured: EC50

Query block: // query EC50 value for entry COc1ncc(C2CCC2)cc1CO[C@H]1[C@H](C(C)(C)C)[C@@H](C(=O)O)N(C(=O)[C@@H]2CCCO2)[C@H]1c1ccccc1C1CC1
Result block: < 1000 nM

Query block: Quick one: EC50 of COc1ncc(C(F)(F)F)cc1CO[C@H]1[C@H](C(C)(C)C)[C@@H](C(=O)O)N(C(=O)[C@@H]2CCCO2)[C@H]1c1cccc(C(C)C)c1 ?
Result block: < 1000 nM

Query block: Give the measured EC50 of COc1ccc(C(F)(F)F)cc1CO[C@@H]1[C@@H](C(C)(C)C)[C@H](C(=O)O)N(C(=O)C2CCCCC2)[C@@H]1c1ccccc1 .
Result block: 1000 to 10000 nM

Query block: Quick one: EC50 for COc1ncc(C(C)(C)C)cc1CO[C@@H]1[C@H](C(C)(C)C)[C@@H](C(=O)O)N(C(=O)OC(C)C)[C@H]1c1ccccc1F ?
Result block: > 10000 nM

Query block: # get_value(readout='EC50', item= COc1ncc(C2CCC2)cc1CO[C@H]1[C@H](C(C)(C)C)[C@@H](C(=O)O)N(C(=O)C2(C(F)(F)F)CCCC2)[C@H]1c1cccnc1OC(C)C )
Result block: < 1000 nM

Query block: Quick one: EC50 for COc1ccc(C(F)(F)F)cc1CO[C@@H]1[C@@H](C(C)(C)C)[C@H](C(=O)O)N(C(=O)[C@@H]2CCC[C@@H](OC)C2)[C@@H]1c1ccccc1 (mixture of isomers) ?
Result block: 1000 to 10000 nM

Query block: May I ask what EC50 has been recorded for COc1ncc(C2CCC2)cc1CO[C@H]1[C@H](C(C)(C)C)[C@@H](C(=O)O)N(C(=O)O[C@@H](C)C(F)(F)F)[C@H]1c1cccnc1OC(C)C ?
Result block: < 1000 nM

Query block: Using the record for COc1ncc(C(F)(F)F)cc1CO[C@H]1[C@H](C(C)(C)C)[C@@H](C(=O)O)N(C(=O)[C@@H]2CCCO2)[C@H]1c1ccccc1C1CC1 , report its EC50.
Result block: < 1000 nM

Query block: GET /values?readout=EC50&item= COc1ccc(C(F)(F)F)cc1C(C)CO[C@H]1[C@H](C(C)(C)C)[C@@H](C(=O)O)N(C(=O)[C@@H]2CCCCO2)[C@H]1c1ccccc1C (some centres unmarked)
Result block: < 1000 nM

Query block: Requested read-out: EC50. Entry: COc1cc(OC)nc(CO[C@@H]2[C@@H](C(C)(C)C)[C@H](C(=O)O)N(C(=O)C3CCCCC3)[C@@H]2c2ccccc2)n1 (racemic)
Result block: 1000 to 10000 nM

Query block: Please give the measured EC50 for this compound: COc1ncc(-c2ccc(F)cc2C)cc1CO[C@H]1[C@H](C(C)(C)C)[C@@H](C(=O)O)N(C(=O)OC(C)C)[C@H]1c1ccccc1
Result block: < 1000 nM

Query block: State the recorded EC50 for this entry: COc1ncc(N2CCCC2)cc1CO[C@H]1[C@H](C(C)(C)C)[C@@H](C(=O)O)N(C(=O)C2CCCCC2)[C@H]1c1ccccc1F
Result block: 1000 to 10000 nM

Query block: Please give the measured EC50 for this compound: COc1ncc(C(F)(F)F)cc1CO[C@H]1[C@H](C(C)(C)C)[C@@H](C(=O)O)N(C(=O)[C@@H]2CCCO2)[C@H]1c1ccnn1C(C)C
Result block: > 10000 nM

Query block: Name the reported EC50 value associated with the compound COc1ncc(C2CCCC2)cc1CO[C@H]1[C@H](C(C)(C)C)[C@@H](C(=O)O)N(C(=O)C2CCCCC2)[C@H]1c1ccccc1
Result block: < 1000 nM

Query block: Which EC50 value belongs to COc1ccc(C2(C)CCC2)cc1CO[C@H]1[C@H](C(C)(C)C)[C@@H](C(=O)O)N(C(=O)OC(C)C)[C@H]1c1cccnc1OC(C)C ?
Result block: < 1000 nM

Query block: Given the entry COc1ncc(C2CCC2)cc1CO[C@H]1[C@H](C(C)(C)C)[C@@H](C(=O)O)N(C(=O)C2CCCCC2)[C@H]1c1ccccc1C1CC1 , report its measured EC50.
Result block: < 1000 nM

Query block: What value of EC50 has been reported for the following compound? COc1ncc(N2CCC(F)(F)C2)cc1CO[C@H]1[C@H](C(C)(C)C)[C@@H](C(=O)O)N(C(=O)OC(C)C)[C@H]1c1ccccc1
Result block: 1000 to 10000 nM

Query block: I would be grateful if you could share the reported EC50 for COc1ncc(C2CCC2)cc1CO[C@H]1[C@H](C(C)(C)C)[C@@H](C(=O)O)N(C(=O)[C@@H]2CCCCO2)[C@H]1c1cccnc1OC(C)C .
Result block: < 1000 nM

Query block: Given the compound COc1cc(C(F)(F)F)ccc1CO[C@H]1[C@H](C(C)(C)C)[C@@H](C(=O)O)N(C(=O)[C@@H]2CCC[C@@H](OC)C2)[C@H]1c1ccccc1 , what is its reported EC50?
Result block: 1000 to 10000 nM

Query block: Data request, read-out EC50, for COc1nc2ccccc2cc1CO[C@H]1[C@H](C(C)(C)C)[C@@H](C(=O)O)N(C(=O)[C@@H]2CCCO2)[C@H]1c1ccccc1C(C)C
Result block: 1000 to 10000 nM

Query block: Requested read-out: EC50. Entry: COc1ncc(C(F)(F)F)cc1CO[C@H]1[C@H](C(C)(C)OC)[C@@H](C(=O)O)N(C(=O)C2CCCCC2)[C@H]1c1ccccc1C(C)C
Result block: < 1000 nM

Query block: I have this compound here, COc1ncc(C(F)(F)F)cc1CO[C@@H]1[C@H](C(C)(C)C)[C@@H](C(=O)O)N(C(=O)[C@@H]2CCCO2)[C@H]1c1cccc(C(C)(C)C)c1 , and I need its recorded EC50.
Result block: > 10000 nM

Query block: Which EC50 value is on record for COc1cc(Cl)ccc1COC1[C@@H](c2ccccc2OC)N(C(=O)C2CCCCC2)[C@@H](C(=O)O)[C@@H]1C(C)(C)C (mixture of isomers) ?
Result block: 1000 to 10000 nM
